- Tested on: HT29 colon
- assayProcedure: NCI tumour cell line growth inhibition, 48 h
Quick reference for TGI among some molecules

[
  {
    "molecule": "C=CCn1c(=O)c(C(=O)Nc2nc(C34CC5CC(CC(C5)C3)C4)cs2)c(O)c2ccccc21",
    "assayEndpoint": "TGI",
    "result": "> 100 µM"
  },
  {
    "molecule": "COc1cc(N=Nc2ccc(O)c3ncccc23)c2ncccc2c1",
    "assayEndpoint": "TGI",
    "result": "> 100 µM"
  },
  {
    "molecule": "O=C(/C(=C/c1ccc(Cl)cc1)c1ccccc1)c1ccccc1",
    "assayEndpoint": "TGI",
    "result": "38.4 µM"
  },
  {
    "molecule": "Cc1ccc(S(=O)(=O)n2c3c(c4ccccc42)CCN2C[C@H]([C@H](C)Br)CC[C@@H]32)cc1",
    "assayEndpoint": "TGI",
    "result": "> 100 µM"
  },
  {
    "molecule": "C[C@@H]1C[C@@H]([C@@H](CC2CC(=O)NC(=O)C2)OC(=O)CC(=O)c2ccccc2)C(=O)[C@@H](C)C1",
    "assayEndpoint": "TGI",
    "result": "> 100 µM"
  },
  {
    "molecule": "CN1C(=O)c2ccccc2NC(=O)C12O[C@@H]2c1ccccc1 (stereo partly drawn)",
    "assayEndpoint": "TGI",
    "result": "> 100 µM"
  },
  {
    "molecule": "Nc1c(C(=O)N/N=C/c2ccccc2)sc(=S)n1-c1ccccc1",
    "assayEndpoint": "TGI",
    "result": "> 100 µM"
  },
  {
    "molecule": "Cn1c(SCc2ccc(F)cc2)nnc1C12CC3CC(CC(C3)C1)C2",
    "assayEndpoint": "TGI",
    "result": "39.2 µM"
  },
  {
    "molecule": "NC(=O)c1c(NC(=O)c2ccccc2)sc2c1CCC(=O)C2",
    "assayEndpoint": "TGI",
    "result": "> 100 µM"
  },
  {
    "molecule": "CC(=NNC(=S)Nc1ccccc1)c1cccc(C(C)=NNC(=S)Nc2ccccc2)n1",
    "assayEndpoint": "TGI",
    "result": "> 100 µM"
  }
]

Requested field: TGI. Item: CCOC(=O)Nc1cc2c(c(N)n1)N=C(c1ccccc1)CO2
10.9 µM

Requested field: TGI. Item: C/C(=N\N=C1/C(=O)OC(c2ccccc2)=C1C(=O)c1ccccc1)c1ccc([N+](=O)[O-])cc1
> 100 µM

Requested field: TGI. Item: O=c1[nH][nH]c(=O)n1CCCCCCn1c(=O)[nH][nH]c1=O
> 100 µM

Requested field: TGI. Item: CCN1CN(c2ccccc2)C2(CCN(CC3COc4ccccc4O3)CC2)C1=O (stereo not drawn)
46.7 µM

Requested field: TGI. Item: CN1CCOC1c1ccccc1O (stereo not drawn)
> 100 µM

Requested field: TGI. Item: O=C(O)[C@H]1CCCN1CP(=O)(O)CN1CCC[C@@H]1C(=O)O
> 100 µM

Requested field: TGI. Item: COC(=O)/C(=N\NC(N)=S)C(C(=O)OC)C(=O)C(=O)Nc1ccc(C)cc1 (stereo not drawn)
> 100 µM

Requested field: TGI. Item: COc1ccc(OCC(=O)O)c2c1CCCC2=O
> 100 µM

Requested field: TGI. Item: O=C(O)c1ccccc1CC(Cc1ccc2c(c1)CCC2)C(=O)O (stereo not drawn)
> 100 µM

Requested field: TGI. Item: NNC(=O)CNc1cccc(Br)c1
> 100 µM

Requested field: TGI. Item: CCOS(C)(=O)=O
> 100 µM

Requested field: TGI. Item: CC1(C)OC[C@@H](O)[C@H](C#N)CO1
> 100 µM

Requested field: TGI. Item: Nc1ncc(-c2ccc3ncnc(Nc4ccc(F)c(Cl)c4)c3c2)cn1
19.3 µM
